- study-system: T1, recombinant human soluble gpNMB (recombinant human gpNMB-FLAG-His) (human, UniProt Q14956 23-498)
- T1 sequence: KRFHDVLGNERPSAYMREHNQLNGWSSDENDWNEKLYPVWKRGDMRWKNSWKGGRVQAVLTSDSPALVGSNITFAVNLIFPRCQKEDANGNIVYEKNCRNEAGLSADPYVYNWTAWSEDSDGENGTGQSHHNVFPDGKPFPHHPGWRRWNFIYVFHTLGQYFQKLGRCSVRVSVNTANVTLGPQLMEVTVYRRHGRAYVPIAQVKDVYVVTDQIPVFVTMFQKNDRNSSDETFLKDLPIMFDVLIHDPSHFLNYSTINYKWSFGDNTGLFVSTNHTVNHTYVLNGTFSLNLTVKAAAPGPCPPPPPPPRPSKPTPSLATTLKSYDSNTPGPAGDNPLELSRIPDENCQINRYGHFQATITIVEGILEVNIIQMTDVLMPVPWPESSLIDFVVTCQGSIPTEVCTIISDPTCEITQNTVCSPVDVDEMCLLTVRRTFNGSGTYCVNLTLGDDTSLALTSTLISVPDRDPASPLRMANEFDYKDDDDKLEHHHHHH
- test-description: antigen ELISA, vs hGPN06-1_H1L1
Each entry below lists one item and its recorded Relative binding activity value.
property-name: Relative binding activity

{"columns": ["binder", "assay-result"],
 "data": [
  ["hGPN06-1_H1L1 VH Y102A (antibody, V domains shown) VH: QVQLVQSGAEVKKPGASVKVSCKASGYTFTDNWMGWVKQRPGQGLEWIGAIDPSDSFTNYNQNFKGRVTMTVDTSISTAYMELSRLRSDDSAVYFCTRSGYAGSPKLGGDYWGQGTLVTVSS VL: EIVLTQSPSSLSASVGDRVTITCSASSSISYMHWYQQKSGTAPKLLIYSTSNLASGVPSRFSGSGSGTDFTFTISSLQPEDAATYYCHQWNSYPCTFGGGTKLEIK", 0.68],
  ["hGPN06-1_H1L1 VH S99A (antibody, V domains shown) VH: QVQLVQSGAEVKKPGASVKVSCKASGYTFTDNWMGWVKQRPGQGLEWIGAIDPSDSFTNYNQNFKGRVTMTVDTSISTAYMELSRLRSDDSAVYFCTRAGYYGSPKLGGDYWGQGTLVTVSS VL: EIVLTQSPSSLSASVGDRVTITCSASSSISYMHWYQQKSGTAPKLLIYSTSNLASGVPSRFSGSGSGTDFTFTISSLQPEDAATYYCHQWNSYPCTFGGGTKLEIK", 0.92],
  ["hGPN06-1_H1L1 VH D110A (antibody, V domains shown) VH: QVQLVQSGAEVKKPGASVKVSCKASGYTFTDNWMGWVKQRPGQGLEWIGAIDPSDSFTNYNQNFKGRVTMTVDTSISTAYMELSRLRSDDSAVYFCTRSGYYGSPKLGGAYWGQGTLVTVSS VL: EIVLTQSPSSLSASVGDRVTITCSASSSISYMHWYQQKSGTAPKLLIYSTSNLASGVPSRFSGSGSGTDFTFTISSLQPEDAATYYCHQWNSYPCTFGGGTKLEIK", 0.79]
]}

Reference source for all entries: patent EP4772193A1
